target: T1, Anti-CD28 scFv (VH - linker 1 - VL) (biotinylated (site not stated)); test: phage ELISA as above, wells pre-incubated with soluble CD28 (competitor);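 also: ELISA of crude clonal phage supernatants added to wells pre-treated with soluble CD28 in blocking buffer, bound phage read out with HRP-conjugated anti-M13 antibody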
T1 construct: Biotinylated scFv captured on neutravidin coated plates in the panning ELISA
T1 sequence (scFv, as listed by the source): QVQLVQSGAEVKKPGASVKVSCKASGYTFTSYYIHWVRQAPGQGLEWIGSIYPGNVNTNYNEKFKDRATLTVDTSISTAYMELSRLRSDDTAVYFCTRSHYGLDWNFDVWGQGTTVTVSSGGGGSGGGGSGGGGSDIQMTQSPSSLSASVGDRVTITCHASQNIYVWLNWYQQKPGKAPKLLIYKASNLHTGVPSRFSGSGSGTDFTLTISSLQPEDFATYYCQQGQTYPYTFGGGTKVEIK
assayReadout: CD28 scFv signal in presence of CD28
Could you keep your reply to the number by itself?

Recorded CD28 scFv signal in presence of CD28, per entry:
Could you tell me which CD28 scFv signal in presence of CD28 is on file for MHWCPLYLWDECFY [Phage-366] ? 0.376

Could you tell me which CD28 scFv signal in presence of CD28 is on file for MSWCPPYLWTVCYN [Phage-368] ? 0.326

# ---- query binder ----
Could you tell me which CD28 scFv signal in presence of CD28 is on file for MDWCPRNLWAECFS [Phage-379] ? 0.08
